biological target: EGFR exon 20 NPG Ins D770_N771 (Ba/F3 cells) (Homo sapiens, UniProt P00533, INS770NPG); construct: expressed in transfected cells; host or cells: Ba/F3 (murine pro-B cells), retroviral transduction, puromycin selection, IL3-independent pool; assay: Inhibitor activity on EGFR-dependent cell growth (CellTiter-Glo, 72 h), Ba/F3 EGFR exon 20 NPG Ins; format: cell-based; conditions: read-out: BaF3 NPG IC50
Sequence (P00533 with tags, fused parts or gaps INS770NPG): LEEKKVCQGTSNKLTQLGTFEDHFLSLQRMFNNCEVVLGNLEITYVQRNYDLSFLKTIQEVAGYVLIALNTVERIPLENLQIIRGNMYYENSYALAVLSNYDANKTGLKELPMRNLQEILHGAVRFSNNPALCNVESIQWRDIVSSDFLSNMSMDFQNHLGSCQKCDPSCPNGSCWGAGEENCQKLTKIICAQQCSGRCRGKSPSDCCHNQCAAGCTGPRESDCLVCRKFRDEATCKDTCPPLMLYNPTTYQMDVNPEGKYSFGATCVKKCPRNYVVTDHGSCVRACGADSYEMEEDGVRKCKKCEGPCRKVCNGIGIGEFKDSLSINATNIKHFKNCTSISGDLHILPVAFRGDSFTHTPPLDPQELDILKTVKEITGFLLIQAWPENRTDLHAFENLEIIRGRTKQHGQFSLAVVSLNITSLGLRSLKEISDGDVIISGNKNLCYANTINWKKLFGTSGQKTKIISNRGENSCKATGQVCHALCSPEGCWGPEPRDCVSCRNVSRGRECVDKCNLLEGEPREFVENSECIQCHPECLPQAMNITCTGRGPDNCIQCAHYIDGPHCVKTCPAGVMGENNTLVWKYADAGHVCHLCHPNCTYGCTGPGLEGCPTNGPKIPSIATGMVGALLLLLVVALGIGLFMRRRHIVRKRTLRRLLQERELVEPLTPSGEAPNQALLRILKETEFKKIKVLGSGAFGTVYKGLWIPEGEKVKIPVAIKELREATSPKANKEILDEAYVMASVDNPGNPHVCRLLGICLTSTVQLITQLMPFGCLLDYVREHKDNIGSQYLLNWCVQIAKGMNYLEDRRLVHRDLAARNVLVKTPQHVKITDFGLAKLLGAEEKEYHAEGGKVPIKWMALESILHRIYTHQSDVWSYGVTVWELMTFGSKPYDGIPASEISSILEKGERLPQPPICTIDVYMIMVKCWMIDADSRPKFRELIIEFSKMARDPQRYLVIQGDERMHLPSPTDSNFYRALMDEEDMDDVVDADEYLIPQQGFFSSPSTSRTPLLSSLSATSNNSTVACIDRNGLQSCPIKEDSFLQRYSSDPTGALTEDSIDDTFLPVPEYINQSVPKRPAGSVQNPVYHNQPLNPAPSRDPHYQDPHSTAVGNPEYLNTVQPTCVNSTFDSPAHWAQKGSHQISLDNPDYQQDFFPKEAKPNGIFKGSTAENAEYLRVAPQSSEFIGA
assay endpoint: IC50

compound="COc1c(F)cccc1Nc1c(-c2ccnc(C)n2)[nH]c2c1C(=O)NCC2C[C@H]1COCCO1 (single isomer, unassigned) [Compound 603]" endpoint_result="< 100 nM"
compound="COc1c(Cl)cccc1Nc1c(-c2ccnc3ccc(OC4(C)CC4)nc23)[nH]c2c1C(=O)NCC2 [Compound 767]" endpoint_result="< 100 nM"
compound="COc1ccc2nccc(-c3[nH]c4c(c3Nc3cccc(F)c3OC)C(=O)NCC4)c2n1 [Compound 681]" endpoint_result="< 100 nM"
compound="COc1c(Cl)cccc1Nc1c(-c2ccncc2F)[nH]c2c1C(=O)NC[C@H]2C[C@@H]1COCCO1 (single isomer, unassigned) [Compound 483]" endpoint_result="< 100 nM"
compound="COCC[C@H]1CNC(=O)c2c1[nH]c(-c1ccnc(C)n1)c2Nc1cccc(F)c1OC [453b]" endpoint_result="< 100 nM"
compound="COc1c(F)cccc1Nc1c(-c2ccncn2)[nH]c2c1C(=O)NCC2C[C@H]1COCCO1 (single isomer, unassigned) [Compound 530]" endpoint_result="< 100 nM"
compound="COC(=O)N1CC2(CNC(=O)c3c2[nH]c(-c2ccncc2F)c3Nc2cccc(Cl)c2OC)C1 [Compound 490]" endpoint_result="> 1000 nM"
compound="COc1c(F)cccc1Nc1c(-c2ccnc(N)n2)[nH]c2c1C(=O)NCC2 [compound 281]" endpoint_result="< 100 nM"
compound="COc1c(Cl)cccc1Nc1c(-c2ccnc(NCCN(C)C)n2)[nH]c2c1C(=O)NCC2 [Compound 707]" endpoint_result="> 1000 nM"
compound="CNc1nccc(-c2[nH]c3c(c2Nc2cccc(Cl)c2OC)C(=O)NCC3)n1 [compound 108]" endpoint_result="< 100 nM"
compound="C=CC(=O)N1CCC2(CC1)CNC(=O)c1c2[nH]c(-c2ccncn2)c1Nc1cc(F)cc(F)c1OC [compound 612]" endpoint_result="< 100 nM"
compound="COc1c(Cl)cccc1Nc1c(-c2ccnc3cnc(OCCN(C)C)nc23)[nH]c2c1C(=O)NCC2 [compound 502]" endpoint_result="100 to 1000 nM"
compound="COc1c(Cl)cccc1Nc1c(-c2ccnc3ccc(OC4(C)COC4)nc23)[nH]c2c1C(=O)NCC2 [Compound 787]" endpoint_result="< 100 nM"
compound="C=CC(=O)NCC[C@H]1CNC(=O)c2c1[nH]c(-c1ccnc(C)n1)c2Nc1cccc(Cl)c1OC [compound 653]" endpoint_result="100 to 1000 nM"
compound="COCC[C@@H]1CNC(=O)c2c1[nH]c(-c1ccnc(C)n1)c2Nc1cccc(F)c1OC [453a]" endpoint_result="100 to 1000 nM"

---

target: EGFR exon 20 ASV Ins V769_D770 (Ba/F3 cells) (Homo sapiens, UniProt P00533, INS769ASV); construct: expressed in transfected cells; host or cells: Ba/F3 (murine pro-B cells), retroviral transduction, puromycin selection, IL3-independent pool; experiment: Inhibitor activity on EGFR-dependent cell growth (CellTiter-Glo, 72 h), Ba/F3 EGFR exon 20 ASV Ins; format: cell-based; details: read-out: BaF3 ASV IC50
Sequence (P00533 with tags, fused parts or gaps INS769ASV): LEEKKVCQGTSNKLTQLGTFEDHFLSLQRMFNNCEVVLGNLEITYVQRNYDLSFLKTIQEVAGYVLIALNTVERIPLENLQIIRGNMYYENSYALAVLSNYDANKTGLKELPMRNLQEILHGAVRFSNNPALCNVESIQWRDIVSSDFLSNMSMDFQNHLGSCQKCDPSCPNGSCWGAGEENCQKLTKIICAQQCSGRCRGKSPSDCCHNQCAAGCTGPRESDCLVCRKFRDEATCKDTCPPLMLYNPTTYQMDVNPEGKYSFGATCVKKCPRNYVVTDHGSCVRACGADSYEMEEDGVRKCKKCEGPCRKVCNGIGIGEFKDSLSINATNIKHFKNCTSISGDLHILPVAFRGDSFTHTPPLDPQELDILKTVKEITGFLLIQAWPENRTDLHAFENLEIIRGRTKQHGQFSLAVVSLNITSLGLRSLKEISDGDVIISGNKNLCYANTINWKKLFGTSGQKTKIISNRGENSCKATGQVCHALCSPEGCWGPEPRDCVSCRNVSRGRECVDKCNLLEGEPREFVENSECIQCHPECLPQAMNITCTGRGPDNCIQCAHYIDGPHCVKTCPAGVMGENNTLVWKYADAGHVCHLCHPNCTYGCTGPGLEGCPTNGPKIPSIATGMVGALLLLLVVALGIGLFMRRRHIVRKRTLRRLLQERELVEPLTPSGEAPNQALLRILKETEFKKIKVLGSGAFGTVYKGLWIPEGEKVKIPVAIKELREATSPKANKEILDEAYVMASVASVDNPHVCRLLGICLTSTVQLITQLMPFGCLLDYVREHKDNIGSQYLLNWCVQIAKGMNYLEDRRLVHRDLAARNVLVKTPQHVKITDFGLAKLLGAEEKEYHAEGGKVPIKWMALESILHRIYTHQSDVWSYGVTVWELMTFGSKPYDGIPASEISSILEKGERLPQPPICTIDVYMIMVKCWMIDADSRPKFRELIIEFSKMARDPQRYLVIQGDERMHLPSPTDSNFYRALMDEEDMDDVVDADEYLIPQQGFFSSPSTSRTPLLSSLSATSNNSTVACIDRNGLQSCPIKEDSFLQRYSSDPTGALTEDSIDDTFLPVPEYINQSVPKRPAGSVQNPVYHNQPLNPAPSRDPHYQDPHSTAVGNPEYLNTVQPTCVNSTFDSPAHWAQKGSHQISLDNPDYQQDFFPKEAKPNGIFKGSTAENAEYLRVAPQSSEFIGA
assay endpoint: IC50

compound=COc1c(F)cccc1Nc1c(-c2ccnc3cnc(OC4COC4)nc23)[nH]c2c1C(=O)NCC2 endpoint_result="< 100 nM"
compound=C=CC(=O)N1CCC2(CC1)CNC(=O)c1c2[nH]c(-c2ccncc2F)c1Nc1ccc(F)c(Cl)c1 endpoint_result="< 100 nM"
compound="COc1c(Cl)cccc1Nc1c(-c2ccncc2F)[nH]c2c1C(=O)NCC2CC1CCO1 (single isomer, unassigned) [Compound 783]" endpoint_result="< 100 nM"
compound="CC[C@@H]1CNC(=O)c2c1[nH]c(-c1ccnc(N)n1)c2Nc1cccc(Cl)c1OC [189a]" endpoint_result="< 100 nM"
compound=N#Cc1c(F)cccc1Nc1c(-c2ccnc(N)n2)[nH]c2c1C(=O)NCC2 endpoint_result="> 1000 nM"
compound=COc1ncc2nccc(-c3[nH]c4c(c3Nc3cccc(Cl)c3OC(F)(F)F)C(=O)NCC4)c2n1 endpoint_result="> 1000 nM"
compound=CCOc1ccc2nccc(-c3[nH]c4c(c3Nc3cccc(Cl)c3OC)C(=O)NCC4)c2n1 endpoint_result="< 100 nM"
compound=COc1c(Cl)cccc1Nc1c(-c2ccnc3ccc(OCCN(C)C)nc23)[nH]c2c1C(=O)NCC2 endpoint_result="< 100 nM"
compound=C=CC(=O)N1CCC2(CC1)CNC(=O)c1c2[nH]c(-c2ccnc(N)n2)c1Nc1cccc(F)c1OC endpoint_result="< 100 nM"
compound=COc1c(Cl)cccc1Nc1c(-c2ccncc2F)[nH]c2c1C(=O)NC[C@]21CCN(C)C1 endpoint_result="100 to 1000 nM"
compound=COc1c(F)cccc1Nc1c(-c2snc3cccnc23)[nH]c2c1C(=O)NCC2 endpoint_result="> 1000 nM"
compound=COc1c(Cl)cccc1Nc1c(-c2ccnc3ccc(OC4COC4)nc23)[nH]c2c1C(=O)NCC2 endpoint_result="< 100 nM"
compound=COc1c(Cl)cccc1Nc1c(-c2ccnc(N)c2F)[nH]c2c1C(=O)NCC2 endpoint_result="< 100 nM"
compound=COc1c(Cl)cccc1Nc1c(-c2ccnc(NC[C@@H]3CCCO3)n2)[nH]c2c1C(=O)NCC2 endpoint_result="> 1000 nM"
compound=COc1c(Cl)cccc1Nc1c(-c2ccnc3c(N)noc23)[nH]c2c1C(=O)NCC2 endpoint_result="< 100 nM"

---

biological target: EGFR WT (Ba/F3 cells) (Homo sapiens); assay: Inhibitor activity on EGFR-dependent cell growth (CellTiter-Glo, 72 h), Ba/F3 EGFR WT; details: read-out: BaF3 WT IC50
Sequence (P00533 25-1210): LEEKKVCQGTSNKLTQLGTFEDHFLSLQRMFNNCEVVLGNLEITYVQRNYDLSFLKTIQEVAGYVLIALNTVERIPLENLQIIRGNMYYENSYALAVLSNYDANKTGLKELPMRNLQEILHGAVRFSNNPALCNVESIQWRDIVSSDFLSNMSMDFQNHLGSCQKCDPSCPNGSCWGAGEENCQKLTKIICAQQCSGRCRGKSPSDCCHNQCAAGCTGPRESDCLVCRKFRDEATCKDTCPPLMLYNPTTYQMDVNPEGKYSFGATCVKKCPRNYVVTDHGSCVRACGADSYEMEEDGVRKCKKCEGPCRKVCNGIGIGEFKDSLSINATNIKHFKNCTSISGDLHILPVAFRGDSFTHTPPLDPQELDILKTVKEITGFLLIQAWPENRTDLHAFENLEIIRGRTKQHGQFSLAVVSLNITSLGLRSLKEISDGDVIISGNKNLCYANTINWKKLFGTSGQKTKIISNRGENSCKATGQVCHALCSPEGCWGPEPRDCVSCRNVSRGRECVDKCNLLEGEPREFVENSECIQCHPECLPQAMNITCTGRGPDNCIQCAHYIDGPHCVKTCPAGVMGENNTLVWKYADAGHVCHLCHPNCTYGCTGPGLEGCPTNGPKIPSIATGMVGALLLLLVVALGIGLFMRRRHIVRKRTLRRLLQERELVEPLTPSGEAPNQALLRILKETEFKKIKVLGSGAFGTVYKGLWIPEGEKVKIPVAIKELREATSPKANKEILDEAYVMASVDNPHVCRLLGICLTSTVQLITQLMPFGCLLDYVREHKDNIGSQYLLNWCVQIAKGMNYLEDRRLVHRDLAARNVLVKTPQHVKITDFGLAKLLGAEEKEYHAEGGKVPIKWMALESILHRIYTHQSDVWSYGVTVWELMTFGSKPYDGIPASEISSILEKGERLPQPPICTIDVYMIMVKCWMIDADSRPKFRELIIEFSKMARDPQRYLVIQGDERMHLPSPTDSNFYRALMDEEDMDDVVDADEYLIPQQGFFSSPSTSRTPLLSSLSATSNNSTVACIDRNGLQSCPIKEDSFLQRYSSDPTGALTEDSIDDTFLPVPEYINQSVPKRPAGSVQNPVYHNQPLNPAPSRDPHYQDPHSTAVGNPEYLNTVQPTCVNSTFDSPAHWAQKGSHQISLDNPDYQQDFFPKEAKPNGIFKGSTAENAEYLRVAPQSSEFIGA
IC50 for assorted compounds
assay endpoint: IC50

compound=COc1c(Cl)cccc1Nc1c(-c2ccnc(NCC3CC(F)(F)C3)c2)[nH]c2c1C(=O)NCC2 assay_endpoint=IC50 endpoint_result="> 1000 nM"
compound=COc1c(Cl)cccc1Nc1c(-c2ccncc2F)[nH]c2c1C(=O)NC[C@@H]2CC(N)=O assay_endpoint=IC50 endpoint_result="> 1000 nM"
compound=COc1c(Cl)cccc1Nc1c(-c2ccncc2F)[nH]c2c1C(=O)NC[C@H]2CCN1CCOCC1 assay_endpoint=IC50 endpoint_result="> 1000 nM"
compound=COc1c(Cl)cccc1Nc1c(-c2ccncc2F)[nH]c2c(C[C@@H]3COCCO3)c[nH]c(=O)c12 assay_endpoint=IC50 endpoint_result="100 to 1000 nM"
compound=COc1c(F)cccc1Nc1c(-c2ccnc3ccc(NC(C)(C)C)nc23)[nH]c2c1C(=O)NCC2 assay_endpoint=IC50 endpoint_result="< 100 nM"
compound=COc1c(F)cccc1Nc1c(-c2nc(N)ncc2F)[nH]c2c1C(=O)NCC2 assay_endpoint=IC50 endpoint_result="> 1000 nM"
compound=COc1c(Cl)cccc1Nc1c(-c2ccnc3ccc(OC[C@@H]4CCO4)nc23)[nH]c2c1C(=O)NCC2 assay_endpoint=IC50 endpoint_result="100 to 1000 nM"
compound=COc1ncc2nccc(-c3[nH]c4c(c3Nc3cccc(Cl)c3C(F)(F)F)C(=O)NCC4)c2n1 assay_endpoint=IC50 endpoint_result="> 1000 nM"
compound=COc1c(Cl)cccc1Nc1c(-c2ccnc3ccc(O[C@@H]4CCCOC4)nc23)[nH]c2c1C(=O)NCC2 assay_endpoint=IC50 endpoint_result="100 to 1000 nM"
compound=COc1c(F)cccc1Nc1c(-c2ccnc(N)c2)[nH]c2c1C(=O)NCC2 assay_endpoint=IC50 endpoint_result="> 1000 nM"
compound="COCC[C@@H]1CNC(=O)c2c1[nH]c(-c1ccncc1F)c2Nc1cccc(F)c1OC [421b]" assay_endpoint=IC50 endpoint_result="100 to 1000 nM"
compound=COc1c(Cl)cccc1Nc1c(-c2ccnc3ccc(OCC4CCC4)nc23)[nH]c2c1C(=O)NCC2 assay_endpoint=IC50 endpoint_result="100 to 1000 nM"
compound=C=CC(=O)N1CCC2(CC1)CNC(=O)c1c2[nH]c(-c2ccncc2F)c1Nc1ccc(Cl)c(Cl)c1 assay_endpoint=IC50 endpoint_result="> 1000 nM"
compound=COc1c(Cl)cccc1Nc1c(-c2ccnc(NC[C@H]3CCO3)n2)[nH]c2c1C(=O)NCC2 assay_endpoint=IC50 endpoint_result="> 1000 nM"
compound=COc1c(Cl)cccc1Nc1c(-c2ccnc(Nc3cnn(C(C)C)c3)n2)[nH]c2c1C(=O)NCC2 assay_endpoint=IC50 endpoint_result="100 to 1000 nM"
compound="COc1c(Cl)cccc1Nc1c(-c2ccnc(N)n2)[nH]c2c1C(=O)N[C@H](C)C2 [187b]" assay_endpoint=IC50 endpoint_result="100 to 1000 nM"
compound="COc1c(Cl)cccc1Nc1c(-c2ccnc3ccc(OC4(C)CC4)nc23)[nH]c2c1C(=O)NC[C@H]2C (single isomer, unassigned)" assay_endpoint=IC50 endpoint_result="< 100 nM"
compound=C=CC[C@H]1CNC(=O)c2c1[nH]c(-c1ccncc1F)c2Nc1cccc(Cl)c1OC assay_endpoint=IC50 endpoint_result="> 1000 nM"
compound=C=CC(=O)N1CCC2(CC1)CNC(=O)c1c2[nH]c(-c2ccncn2)c1Nc1cc(F)cc(F)c1OC assay_endpoint=IC50 endpoint_result="100 to 1000 nM"
compound="COc1c(F)cccc1Nc1c(-c2ccncc2F)[nH]c2c1C(=O)NC[C@@H]2C[C@@H]1CCO1 [Compound 422b]" assay_endpoint=IC50 endpoint_result="> 1000 nM"
compound=COc1c(Cl)cccc1Nc1c(-c2ccnc(NC[C@@H]3CCCO3)n2)[nH]c2c1C(=O)NCC2 assay_endpoint=IC50 endpoint_result="> 1000 nM"
compound=COCC[C@H]1CNC(=O)c2c1[nH]c(-c1ccnc(N)n1)c2Nc1cccc(Cl)c1OC assay_endpoint=IC50 endpoint_result="100 to 1000 nM"
compound=C=CC(=O)N1CCC2(CC1)CNC(=O)c1c2[nH]c(-c2ccnc(C)n2)c1Nc1cc(F)cc(Cl)c1OC assay_endpoint=IC50 endpoint_result="100 to 1000 nM"
compound=Nc1nccc(-c2[nH]c3c(c2Nc2ccc(F)c(F)c2)C(=O)NCC3)n1 assay_endpoint=IC50 endpoint_result="> 1000 nM"
compound=COCC[C@H]1CNC(=O)c2c1[nH]c(-c1ccncc1F)c2Nc1cccc(F)c1OC(F)F assay_endpoint=IC50 endpoint_result="> 1000 nM"
compound="COCC[C@H]1CNC(=O)c2c1[nH]c(-c1ccnc(C)n1)c2Nc1cccc(F)c1OC [453b]" assay_endpoint=IC50 endpoint_result="100 to 1000 nM"
compound=COc1c(F)cccc1Nc1c(-c2ncnc3c2ccn3C)[nH]c2c1C(=O)NCC2 assay_endpoint=IC50 endpoint_result="> 1000 nM"
compound=C=CC(=O)N1CCC2(CC1)CNC(=O)c1c2[nH]c(-c2ccncc2F)c1Nc1cccc(Cl)c1F assay_endpoint=IC50 endpoint_result="100 to 1000 nM"
compound=COc1c(F)cccc1Nc1c(-c2ccncn2)[nH]c2c1C(=O)NC[C@H]2C[C@@H]1COCCO1 assay_endpoint=IC50 endpoint_result="100 to 1000 nM"
compound=Nc1nccc(-c2[nH]c3c(c2Nc2ccc(Cl)cc2)C(=O)NCC3)n1 assay_endpoint=IC50 endpoint_result="> 1000 nM"

All figures here come from patent US20240101576A1.
